Origin of the recorded values: patent US20190060384A1

ASSAY COMMENT: Pharmacokinetics of gefitinib after repeated oral Lonicera flos
Format: in vivo, Sprague-Dawley rats
CONDITION CONTEXT: male, Sprague-Dawley, rat, plasma, po, 10 mg/kg, gefitinib 10 mg/kg oral, Control, average
ENDPOINT NAME: half-life (min)
Express it in min; write the number only.

half-life lookup needed for COc1cc2ncnc(Nc3ccc(F)c(Cl)c3)c2cc1OCCCN1CCOCC1 , thanks.
303

###

ASSAY COMMENT: Pharmacokinetics of gefitinib after repeated oral Lonicera flos
Type: in vivo, Sprague-Dawley rats
CONDITION CONTEXT: male, Sprague-Dawley, rat, plasma, oral, 10 mg/kg, gefitinib 10 mg/kg oral, control (saline) rats, 0.50 h
ENDPOINT NAME: concentration at 0.5 h (ng/mL)
Express it in ng/mL; write the number only.

concentration at 0.5 h lookup needed for COc1cc2ncnc(Nc3ccc(F)c(Cl)c3)c2cc1OCCCN1CCOCC1 , thanks.
703
